Hello, the source for this data is the supplement of paper PMC12645437, in case you need it.

Answer each item with its documented log2 fold change of degron read counts.
# MEASUREMENT TARGET: T1, CRBN, Q96SW2;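 also: pooled lentiviral library of zinc finger degron-EGFP fusions in mCherry-positive Jurkat cells, FACS-sorted after compound exposure, with degron abundance counted by next-generation sequencing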
# T1 chain: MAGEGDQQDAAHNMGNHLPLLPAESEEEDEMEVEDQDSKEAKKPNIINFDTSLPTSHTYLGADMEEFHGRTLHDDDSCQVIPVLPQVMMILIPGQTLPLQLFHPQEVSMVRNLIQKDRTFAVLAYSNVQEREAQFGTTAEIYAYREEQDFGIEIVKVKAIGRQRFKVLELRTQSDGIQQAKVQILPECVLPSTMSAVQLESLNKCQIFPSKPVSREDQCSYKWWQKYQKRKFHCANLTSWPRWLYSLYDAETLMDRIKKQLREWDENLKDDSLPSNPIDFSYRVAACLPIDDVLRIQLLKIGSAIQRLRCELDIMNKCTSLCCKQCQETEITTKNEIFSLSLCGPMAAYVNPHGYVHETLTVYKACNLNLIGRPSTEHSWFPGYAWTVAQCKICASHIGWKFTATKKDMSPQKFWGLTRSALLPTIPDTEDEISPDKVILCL
# RUN DESCRIPTION: log2 fold change of degron read counts, EGFP-low vs EGFP+ sorted cells (limma voom), compound-induced degradation; higher = more compound-induced degradation of the degron-EGFP fusion; degrons are variants of IKZF1/3 zinc finger 2; compound dose not given here
# DETAILS: Jurkat; 18 h; compound: compound 33 (diphenyl IMiD analogue)
The full ranking holds about 8,300 sequences; the median of “log2 fold change of degron read counts, EGFP-low vs EGFP+ sorted cells (limma voom), compound-induced degradation” is about -1.1, and the highest 2% start at about 3.2. The full list was thinned out, with the highest values kept by preference.
One number for each entry.

Please state, for each entry, its recorded log2 fold change of degron read counts.
1. FLCEICGANFTQKGNLLRHIKL [46F_47L_49E_50I_52G_53A_54N_55F_67L_, Q9UKT9]
2. FFCEICGANFTQKGNLLRHIKL [46F_47F_49E_50I_52G_53A_54N_55F_67L_, Q9UKT9]
3. FACEICGANFTQKGNLLRHIKL [46F_47A_49E_50I_52G_53A_54N_55F_67L_, Q9UKT9]
4. FTCEICGANFTQKGNLLRHIKL [46F_47T_49E_50I_52G_53A_54N_55F_67L_, Q9UKT9]

1. 1.21
2. 1.75
3. 1.07
4. 1.46
